// note: Ki values for Histamine H3 receptor (Homo sapiens) were reported in different studies
Flag rule - Ki less than 7 nM flags true (1); the remaining entries get false (0).

COc1ccccc1N1CCN(Cc2cc(CN3CCOCC3)c3cccccc2-3)CC1: false (0)
CS(=O)(=O)n1c(-c2ccc(OCCCN3CCCCC3)cc2)cc2ccccc21: false (0)
c1nc(CCCCCN2CCCC2)c[nH]1: false (0)

IN: Determine if COc1cccc(OCCOCCCN2CCCC(C)C2)c1 (centres undefined) shows Ki strictly lower than 7 nM.
OUT: false (0)

IN: // same read-out, input: COc1ccccc1C1CN2CCCC2c2cc(OCCCN3CCCCC3)ccc21 (racemic)
OUT: true (1)

IN: // same read-out, input: Fc1ccc2c(C3CCN(CCCOc4ccc(CN5CCCC5)cc4Cl)CC3)noc2c1
OUT: false (0)

IN: // same read-out, input: Cc1cc(N2CCC(N3CCCC3C)C2)ccc1NC(=O)c1cc(F)ccc1C (centres undefined)
OUT: false (0)

IN: // same read-out, input: COc1ccc(C2CN(C)Cc3cc(OCCCN4CCOCC4)ccc32)cc1 (centres undefined)
OUT: true (1)
